study.target: p110δ/p85α (Homo sapiens)
assay.remarks: Transcreener KINASE Assay, kinase inhibition of p110δ/p85α
Format: biochemical
test.parameters: 1 uM test compound
reported.endpoint: PI3Kδ IH % @ 1 uM

1) N#Cc1cccc(-n2c([C@@H]3CCCN3c3ncnc4[nH]cc(C#N)c34)nn3ccc(Cl)c3c2=O)c1 [Compound 39]	94.2%
2) CC(=O)c1c[nH]c2ncnc(NC(C)c3cn4ccc(Cl)c4c(=O)n3-c3ccccc3)c12 (stereo not shown) [Compound 272]	98.8%
3) N#Cc1c[nH]c2ncnc(N3CC[C@H]3c3nn4ccc(Cl)c4c(=O)n3Cc3cccnc3)c12 [Compound 61]	73.9%
4) CC(=O)c1cnc(N)nc1N1CC[C@H]1c1nn2ccc(Cl)c2c(=O)n1-c1cc(F)cc(F)c1 [Compound 495]	99.5%

* * *

study.target: p110δ/p85α (Homo sapiens, UniProt O00329)
Sequence (O00329 whole entry): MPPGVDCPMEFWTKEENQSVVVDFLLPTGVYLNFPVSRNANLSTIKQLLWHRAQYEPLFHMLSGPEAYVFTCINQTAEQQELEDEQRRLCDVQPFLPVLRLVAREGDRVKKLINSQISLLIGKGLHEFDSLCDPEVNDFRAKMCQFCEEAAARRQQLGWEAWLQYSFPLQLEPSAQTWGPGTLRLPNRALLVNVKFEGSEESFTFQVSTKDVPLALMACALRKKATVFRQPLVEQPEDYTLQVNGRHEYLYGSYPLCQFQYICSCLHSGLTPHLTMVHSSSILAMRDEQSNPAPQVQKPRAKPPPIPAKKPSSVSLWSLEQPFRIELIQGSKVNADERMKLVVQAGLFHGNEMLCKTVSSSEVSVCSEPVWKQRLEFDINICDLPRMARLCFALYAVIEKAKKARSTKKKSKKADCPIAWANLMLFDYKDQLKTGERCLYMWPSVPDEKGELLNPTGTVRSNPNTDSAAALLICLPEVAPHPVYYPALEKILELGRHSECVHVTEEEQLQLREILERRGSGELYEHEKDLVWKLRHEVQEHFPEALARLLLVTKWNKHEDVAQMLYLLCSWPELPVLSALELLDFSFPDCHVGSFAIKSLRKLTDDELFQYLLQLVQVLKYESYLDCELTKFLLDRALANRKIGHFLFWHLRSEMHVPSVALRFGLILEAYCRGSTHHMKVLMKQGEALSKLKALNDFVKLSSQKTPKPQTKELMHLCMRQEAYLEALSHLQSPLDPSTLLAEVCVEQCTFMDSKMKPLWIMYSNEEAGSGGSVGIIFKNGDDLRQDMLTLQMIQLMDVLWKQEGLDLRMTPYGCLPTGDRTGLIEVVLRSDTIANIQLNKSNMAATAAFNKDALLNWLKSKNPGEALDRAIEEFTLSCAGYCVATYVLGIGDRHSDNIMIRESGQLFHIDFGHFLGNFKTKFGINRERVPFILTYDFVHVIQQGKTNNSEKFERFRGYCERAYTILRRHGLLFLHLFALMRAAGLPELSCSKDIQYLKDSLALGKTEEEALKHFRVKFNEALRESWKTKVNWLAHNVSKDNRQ
Sequence (P27986 whole entry partner): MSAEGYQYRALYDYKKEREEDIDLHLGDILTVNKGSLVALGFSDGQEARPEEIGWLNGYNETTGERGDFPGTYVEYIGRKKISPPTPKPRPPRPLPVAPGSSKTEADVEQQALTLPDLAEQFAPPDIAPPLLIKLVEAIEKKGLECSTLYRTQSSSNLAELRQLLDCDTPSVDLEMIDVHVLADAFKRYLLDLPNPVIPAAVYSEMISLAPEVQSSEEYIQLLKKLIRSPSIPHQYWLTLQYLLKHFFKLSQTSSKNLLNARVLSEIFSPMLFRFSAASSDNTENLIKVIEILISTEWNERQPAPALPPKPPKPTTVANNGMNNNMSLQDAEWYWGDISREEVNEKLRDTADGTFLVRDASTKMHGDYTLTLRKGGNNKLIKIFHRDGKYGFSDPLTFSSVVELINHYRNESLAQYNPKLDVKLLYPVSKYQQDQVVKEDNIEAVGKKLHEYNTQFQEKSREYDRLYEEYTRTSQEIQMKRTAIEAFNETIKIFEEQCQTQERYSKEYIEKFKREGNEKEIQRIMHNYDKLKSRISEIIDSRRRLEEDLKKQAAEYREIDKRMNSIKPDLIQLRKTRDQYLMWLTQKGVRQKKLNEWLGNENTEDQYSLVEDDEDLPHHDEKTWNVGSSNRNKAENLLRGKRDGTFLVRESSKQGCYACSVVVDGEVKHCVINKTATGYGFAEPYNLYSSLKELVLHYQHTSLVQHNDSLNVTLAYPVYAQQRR
assay.remarks: Transcreener KINASE Assay, kinase inhibition of p110δ/p85α
Format: biochemical
test.parameters: 1 uM test compound
reported.endpoint: PI3Kδ IH % @ 1 uM (%)

1) CC(Nc1ncnc(N)c1C#N)c1cn2ccc(Cl)c2c(=O)n1-c1ccc(F)cc1 (stereo not shown) [Compound 79]	99.0
2) N#Cc1ncc(-c2c[nH]c3ncnc(N4CC[C@H]4c4nn5ccc(Cl)c5c(=O)n4-c4ccccc4)c23)cn1 [Compound 103]	99.7
3) Nc1nc2c(c(N3CC[C@H]3c3nn4ccc(Cl)c4c(=O)n3-c3ccccc3)n1)CCC2 [Compound 247]	53.0
4) O=c1c2cccn2nc([C@@H]2CCN2c2ncnc3[nH]cnc23)n1-c1ccccc1 [Compound 7]	50.4
5) N#Cc1cnc(N)nc1N1CC(=O)C[C@H]1c1nn2ccc(Cl)c2c(=O)n1-c1ccccc1 [Compound 403]	98.1

* * *

study.target: p110δ/p85α (Homo sapiens, UniProt O00329)
assay.remarks: Transcreener KINASE Assay, kinase inhibition of p110δ/p85α
Type: biochemical
test.parameters: read-out: PI3Kδ IC50
The entries below come with measured IC50 values attached.
reported.endpoint: IC50 (nM)

1) C[S@+]([O-])c1c[nH]c2ncnc(N3C[C@@H](F)C[C@H]3c3nn4ccc(Cl)c4c(=O)n3-c3cccc(F)c3)c12	11
2) C[C@H]1CN(c2nc(N)ncc2C#N)[C@@H]1c1nn2ccc(Cl)c2c(=O)n1-c1ccccn1	58
3) CC(=O)c1c[nH]c2ncnc(N3C[C@@H](F)C[C@H]3c3nn4ccc(Cl)c4c(=O)n3-c3ccccc3)c12	3
4) CCc1ccn2nc([C@@H]3CCN3c3ncnc4[nH]cc(C#N)c34)n(-c3ccccc3)c(=O)c12	172

* * *

Measured PI3Kδ IH % @ 1 uM accompanies every entry in the list below.
study.target: p110δ/p85α (Homo sapiens, UniProt O00329)
assay.remarks: Transcreener KINASE Assay, kinase inhibition of p110δ/p85α
Format: biochemical
test.parameters: 1 uM test compound
Method: PI3K kinases including p110α/p85α, p110δ/p85α and p110γ are purchased from Invitrogen, and p110β/p85α is from Millipore. Primary screening data and IC50 values are measured using Transcreener™ KINASE Assay (Bellbrook, Catalog #3003-10K). […] It is a universal, homogenous, high throughput screening (HTS) technology using a far-red, competitive fluorescence polarization immunoassay based on the detection of ADP to monitor the activity of enzymes that catalyze group transfer reactions. […]
reported.endpoint: PI3Kδ IH % @ 1 uM (%)

1. CC(=O)c1c[nH]c2ncnc(N3CCC[C@H]3c3nn4ccc(F)c4c(=O)n3-c3ccccc3)c12 [Compound 218]	97.3
2. CC(=O)c1c[nH]c2ncnc(N3CCC[C@H]3c3nn4ccc(Cl)c4c(=O)n3-c3ccccn3)c12 [Compound 340]	100.0
3. Nc1ncc(F)c(N2CCC[C@H]2c2nn3ccc(Cl)c3c(=O)n2-c2ccccc2)n1 [Compound 215]	98.5
4. CS(=O)(=O)CCn1c([C@@H]2CCCN2c2ncnc3[nH]cnc23)nn2ccc(Cl)c2c1=O [Compound 372]	84.8
5. C[C@H]1CN(c2ncnc3[nH]cc(C#N)c23)[C@@H]1c1nn2ccc(Cl)c2c(=O)n1-c1ccccn1 [Compound 476]	95.9

* * *

study.target: p110γ (Homo sapiens, UniProt P48736)
Sequence (P48736 whole entry): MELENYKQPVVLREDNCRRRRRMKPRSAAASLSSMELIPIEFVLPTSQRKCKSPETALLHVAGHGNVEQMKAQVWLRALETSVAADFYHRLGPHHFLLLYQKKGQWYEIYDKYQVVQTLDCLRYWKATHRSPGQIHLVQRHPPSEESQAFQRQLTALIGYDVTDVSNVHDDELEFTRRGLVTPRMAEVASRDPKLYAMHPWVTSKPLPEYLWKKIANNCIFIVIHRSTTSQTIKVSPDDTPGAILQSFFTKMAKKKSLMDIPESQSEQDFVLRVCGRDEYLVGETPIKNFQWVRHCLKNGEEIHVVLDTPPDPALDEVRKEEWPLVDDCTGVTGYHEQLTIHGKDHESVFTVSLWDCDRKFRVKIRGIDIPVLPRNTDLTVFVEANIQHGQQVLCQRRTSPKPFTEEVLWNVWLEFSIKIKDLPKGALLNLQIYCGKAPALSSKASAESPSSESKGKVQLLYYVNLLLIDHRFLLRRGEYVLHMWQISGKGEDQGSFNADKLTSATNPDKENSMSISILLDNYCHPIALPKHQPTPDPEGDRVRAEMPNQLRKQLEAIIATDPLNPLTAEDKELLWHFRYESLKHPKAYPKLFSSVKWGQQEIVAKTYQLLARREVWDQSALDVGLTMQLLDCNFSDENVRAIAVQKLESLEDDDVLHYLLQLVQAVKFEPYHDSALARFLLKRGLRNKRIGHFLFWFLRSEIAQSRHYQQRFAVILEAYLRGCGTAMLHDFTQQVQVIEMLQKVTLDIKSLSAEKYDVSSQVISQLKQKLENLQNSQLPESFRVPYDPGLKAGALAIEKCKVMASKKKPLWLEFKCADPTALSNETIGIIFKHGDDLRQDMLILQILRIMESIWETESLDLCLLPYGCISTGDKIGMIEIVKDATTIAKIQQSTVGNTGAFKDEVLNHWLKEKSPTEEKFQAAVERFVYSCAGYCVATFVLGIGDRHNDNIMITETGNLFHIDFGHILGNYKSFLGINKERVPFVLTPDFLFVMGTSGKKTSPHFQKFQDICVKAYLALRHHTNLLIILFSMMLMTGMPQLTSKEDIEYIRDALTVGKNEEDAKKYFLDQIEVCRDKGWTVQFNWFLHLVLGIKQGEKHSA
assay.remarks: Transcreener KINASE Assay, kinase inhibition of p110γ
Assay type: biochemical
test.parameters: 1 uM test compound
Experimental: Kinase Inhibition assays of p110α/p85α, p110β/p85α, p110δ/p85α and p110γ PI3K kinases including p110α/p85α, p110δ/p85α and p110γ are purchased from Invitrogen, and p110β/p85α is from Millipore. Primary screening data and IC50 values are measured using Transcreener™ KINASE Assay (Bellbrook, Catalog #3003-10K). […] The plate is sealed again and incubated for 60 min at room temperature, and then measure fluorescence polarization by Tecan Infinite F500 Reader. […]
reported.endpoint: PI3Kγ IH % @ 1 uM (%)

1) O=c1c2c(F)ccn2nc([C@@H]2CCCN2c2ncnc3[nH]cnc23)n1-c1ccccn1 [Compound 313]	77.2
2) Nc1ncc([N+](=O)[O-])c(N2CC[C@H]2c2nn3ccc(Cl)c3c(=O)n2-c2ccccc2)n1 [Compound 282]	93.5
3) CN(C)C(=O)c1cnc(N)nc1N1CC[C@H]1c1nn2ccc(Cl)c2c(=O)n1-c1ccccc1 [Compound 281]	62.2
4) Nc1nc2c(c(N3CC[C@H]3c3nn4ccc(F)c4c(=O)n3-c3ccccc3)n1)C(=O)CCN2 [Compound 248]	98.0
5) N#Cc1cnc(N)nc1N1CC(=O)C[C@H]1c1nn2ccc(F)c2c(=O)n1-c1ccccc1 [Compound 401]	67.8
6) O=c1c2c(CO)ccn2nc([C@@H]2CCCN2c2ncnc3[nH]cnc23)n1-c1ccccc1 [Compound 177]	79.8
7) Nc1ncc(-c2n[nH]c3ncnc(N4CC[C@H]4c4nn5ccc(Cl)c5c(=O)n4-c4ccccc4)c23)cn1 [Compound 171]	75.3

* * *

study.target: p110β/p85α (Homo sapiens)
Sequence (P42338 whole entry, one chain of several): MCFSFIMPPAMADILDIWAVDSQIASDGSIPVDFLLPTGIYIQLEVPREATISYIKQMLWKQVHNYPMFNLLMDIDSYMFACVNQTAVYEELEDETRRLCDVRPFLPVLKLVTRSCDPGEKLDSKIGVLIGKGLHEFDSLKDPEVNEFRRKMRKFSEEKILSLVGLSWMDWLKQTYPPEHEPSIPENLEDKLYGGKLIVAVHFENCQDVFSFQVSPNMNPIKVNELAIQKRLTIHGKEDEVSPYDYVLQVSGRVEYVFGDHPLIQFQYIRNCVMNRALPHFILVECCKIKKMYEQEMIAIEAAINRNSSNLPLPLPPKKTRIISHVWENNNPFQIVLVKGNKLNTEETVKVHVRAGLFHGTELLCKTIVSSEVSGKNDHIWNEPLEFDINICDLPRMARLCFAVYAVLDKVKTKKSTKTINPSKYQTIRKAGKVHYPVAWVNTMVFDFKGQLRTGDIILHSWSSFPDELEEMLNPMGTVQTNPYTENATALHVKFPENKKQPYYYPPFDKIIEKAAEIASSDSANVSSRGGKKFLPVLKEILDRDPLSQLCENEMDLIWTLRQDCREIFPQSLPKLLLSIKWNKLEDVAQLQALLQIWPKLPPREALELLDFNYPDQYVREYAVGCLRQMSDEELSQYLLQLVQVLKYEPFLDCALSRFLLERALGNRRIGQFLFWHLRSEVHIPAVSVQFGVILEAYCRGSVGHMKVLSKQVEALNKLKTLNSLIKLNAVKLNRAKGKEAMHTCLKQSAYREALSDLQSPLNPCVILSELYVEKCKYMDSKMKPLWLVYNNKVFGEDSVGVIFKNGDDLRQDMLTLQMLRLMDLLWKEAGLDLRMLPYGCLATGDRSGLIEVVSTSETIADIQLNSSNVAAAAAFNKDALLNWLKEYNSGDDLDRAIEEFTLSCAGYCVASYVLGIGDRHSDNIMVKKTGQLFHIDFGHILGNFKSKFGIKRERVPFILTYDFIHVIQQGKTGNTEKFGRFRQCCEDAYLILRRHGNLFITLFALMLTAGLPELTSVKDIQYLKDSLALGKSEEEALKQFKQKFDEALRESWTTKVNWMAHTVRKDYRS
assay.remarks: Transcreener KINASE Assay, kinase inhibition of p110β/p85α
Format: biochemical
test.parameters: 1 uM test compound
Examples of molecules with documented PI3Kβ IH % @ 1 uM follow.
reported.endpoint: PI3Kβ IH % @ 1 uM (%)

1. O=c1c2c(Cl)ccn2nc([C@@H]2C[C@H](F)CN2c2ncnc3[nH]cnc23)n1Cc1ccccn1	39.5
2. CC(C)Cn1c([C@@H]2CCN2c2ncnc3[nH]cc(C#N)c23)nn2ccc(Cl)c2c1=O	41.5
3. CC(Nc1nc(N)ncc1C#N)c1cn2ccc(F)c2c(=O)n1-c1ccccc1 (single isomer, unassigned)	87.2
4. CC(=O)c1cnc(N)nc1NC(C)c1cc2ncc(Cl)n2c(=O)n1-c1ccccc1 (stereo not drawn)	94.5
5. COc1ccc(-c2c[nH]c3ncnc(N4CC[C@H]4c4nn5ccc(Cl)c5c(=O)n4-c4ccccc4)c23)cn1	92.3
6. O=c1c2c(Cl)ccn2nc([C@@H]2C[C@H](F)CN2c2ncnc3[nH]cnc23)n1-c1ccccc1	69.5
7. O=c1c2c(Cl)ccn2nc([C@@H]2C[C@H](F)CN2c2ncnc3[nH]cnc23)n1-c1cccc(F)c1	65.7
8. O=c1c2c(Cl)ccn2nc([C@@H]2CCN2c2nc(N3CCOCC3)nc3[nH]cnc23)n1-c1ccccc1	86.4
9. CC(=O)c1c[nH]c2ncnc(N3CCC[C@H]3c3nn4ccc(Cl)c4c(=O)n3-c3cccc(F)c3)c12	69.1
10. Nc1nc2c(c(N3CCC[C@H]3c3nn4ccc(Cl)c4c(=O)n3-c3ccccc3)n1)CCC2	2.5
11. CC(Nc1ncnc2[nH]cc(F)c12)c1cc2ncc(Cl)n2c(=O)n1-c1ccccc1 (single isomer, unassigned) [Compound 450]	76.9
12. CC(Nc1ncnc2[nH]cnc12)c1cn2ccc(-c3cnn(C)c3)c2c(=O)n1-c1ccccc1 (stereo not drawn)	5.4
13. O=c1c2c(F)ccn2nc([C@@H]2CCCN2c2ncnc3[nH]cnc23)n1-c1ccccc1	52.9
14. CC(=O)c1cnc(N)nc1N1CC(C)(C)C1c1nn2ccc(Cl)c2c(=O)n1-c1ccccc1 (stereo in doubt)	88.3
15. N#Cc1c[nH]c2ncnc(N3CC[C@H]3c3nn4ccc(Cl)c4c(=O)n3C3CCC3)c12	32.9
16. CC(Nc1ncnc(N)c1C#N)c1cn2ccc(Cl)c2c(=O)n1-c1ccc(F)cc1 (stereo not drawn)	96.3
17. N#Cc1c[nH]c2ncnc(N3C[C@H](F)C[C@H]3c3nn4ccc(Cl)c4c(=O)n3-c3ccccc3)c12	69.7
18. Cc1nc(N)nc(N2C[C@H](C)C2c2nn3ccc(Cl)c3c(=O)n2-c2ccccc2)c1C#N (stereo partly drawn)	97.1

* * *

Item-by-item account of PI3Kβ IH % @ 1 uM
study.target: p110β/p85α (Homo sapiens)
assay.remarks: Transcreener KINASE Assay, kinase inhibition of p110β/p85α
Assay type: biochemical
test.parameters: 1 uM test compound
reported.endpoint: PI3Kβ IH % @ 1 uM

1) CC(C)Cn1c([C@@H]2CCCN2c2ncnc3[nH]cc(C#N)c23)nn2ccc(Cl)c2c1=O	78.8%
2) CC(Nc1ncnc(N)c1C#N)c1cn2ccc(Cl)c2c(=O)n1-c1ccccc1 (stereo not shown)	96.1%
3) CS(=O)(=O)[C@H]1C[C@@H](c2nn3ccc(Cl)c3c(=O)n2-c2ccccc2)N(c2ncnc3[nH]cnc23)C1	74.4%
4) N#Cc1cnc(N)nc1N1CCC[C@H]1c1nn2ccc(Cl)c2c(=O)n1-c1ccccc1	80.4%
5) Cc1nc(N2CCC[C@H]2c2nn3ccc(F)c3c(=O)n2-c2ccccc2)c2nc[nH]c2n1	59.8%
6) N#Cc1cnc(N)nc1N1CC(=O)C[C@H]1c1nn2ccc(F)c2c(=O)n1-c1ccccc1	46.7%
7) N#Cc1c[nH]c2ncnc(N3CCC[C@H]3c3nn4ccc(Cl)c4c(=O)n3Cc3ccccn3)c12	50.6%
8) O=c1c2c(Cl)ccn2nc([C@@H]2CCN2c2ncnc3[nH]ccc23)n1-c1ccccc1	13.5%
9) COc1ncc(-c2n[nH]c3ncnc(N4CCC[C@H]4c4nn5ccc(Cl)c5c(=O)n4-c4ccccc4)c23)cn1	98.8%
10) Nc1nc(N2CC(F)(F)C[C@H]2c2nn3ccc(Cl)c3c(=O)n2-c2ccccc2)n2nccc2n1	27.6%
11) Cc1nc(N)nc(N2C[C@H](C)C2c2nn3ccc(F)c3c(=O)n2-c2ccccc2)c1C#N (stereo partly shown)	78.5%
12) N#Cc1cnc(N)nc1N1CCC[C@H]1c1nn2ccc(Cl)c2c(=O)n1C1CCC1	54.8%
13) CC(Nc1ncnc2[nH]cc(C#N)c12)c1cc2ccc(Cl)n2c(=O)n1-c1cccc(F)c1 (stereo not shown)	87.8%
14) CC(C)Cn1c([C@@H]2CCN2c2nc(N)ncc2C#N)nn2ccc(Cl)c2c1=O	39.6%
15) N#Cc1c[nH]c2ncnc(N3CCC[C@H]3c3nn4ccc(Cl)c4c(=O)n3Cc3ncccn3)c12	56.0%
16) Cc1ccn2nc([C@@H]3CCCN3c3ncnc(N)c3Cl)n(-c3ccccc3)c(=O)c12	71.9%
17) CSc1n[nH]c2ncnc(N3CCC[C@H]3c3nn4ccc(Cl)c4c(=O)n3-c3ccccc3)c12	16.3%
18) Nc1nc2c(c(N3CCC[C@H]3c3nn4ccc(Cl)c4c(=O)n3-c3ccccc3)n1)C(=O)CCN2	46.5%
19) Cc1cccc(-n2c([C@@H]3CCCN3c3ncnc4[nH]cnc34)nn3ccc(Cl)c3c2=O)n1	45.2%
20) N#Cc1c[nH]c2ncnc(N3CC(F)(F)C[C@H]3c3nn4ccc(Cl)c4c(=O)n3Cc3ccccn3)c12	11.4%
21) O=c1c2c(Cl)ccn2nc([C@@H]2COCCN2c2ncnc3[nH]cnc23)n1-c1ccccc1	56.5%
22) O=c1c2c(Cl)ccn2nc([C@@H]2CCCN2c2ncnc3[nH]cc(F)c23)n1-c1ccccc1	65.3%
23) COc1ncc(-c2c[nH]c3ncnc(N4CC[C@H]4c4nn5ccc(F)c5c(=O)n4-c4ccccc4)c23)cn1	95.9%
24) N#Cc1c[nH]c2ncnc(N3CC[C@H]3c3nn4ccc(Cl)c4c(=O)n3-c3ccccc3)c12	49.9%
25) N#Cc1c(N)ncnc1N1CC[C@H]1c1nn2ccc(Cl)c2c(=O)n1-c1ccccc1	35.3%
26) COc1ncc(-c2n[nH]c3ncnc(N4CC[C@H]4c4nn5ccc(Cl)c5c(=O)n4-c4ccccc4)c23)cn1	38.2%
27) CC(Nc1ncnc2[nH]cnc12)c1cn2ccc(Cl)c2c(=O)n1-c1ccccc1 (stereo not shown)	90.8%
28) Cc1ccn2cc(C(C)Nc3ncnc4[nH]cnc34)n(-c3ccccc3)c(=O)c12 (stereo not shown)	65.2%
29) N#Cc1c(N)ncnc1N1CCC[C@H]1c1nn2ccc(Cl)c2c(=O)n1Cc1ccccn1	57.8%
30) Nc1ncc(Cl)c(N2CC[C@H]2c2nn3ccc(Cl)c3c(=O)n2-c2ccccc2)n1	22.9%
31) N#Cc1c[nH]c2ncnc(N3CCC[C@H]3c3nn4ccc(Cl)c4c(=O)n3-c3ccccn3)c12	93.2%

Source of measurements: patent US20150307520A1
